Test system: BVDV
TEST_DESCRIPTION: XTT cytopathicity assay, Bucast in combination with interferon alpha
Format: cell-based, bovine viral diarrhoea virus
MEASUREMENT_PARAMETERS: fixed interferon α 0 IRU/well
TEST_READOUT: pIC50
pIC50 is a log-scale quantity: -log10 of the concentration expressed in molar.

Form field, pIC50 with BVDV, item CCCC(=O)O[C@H]1CN2CC[C@H](O)[C@@H]2[C@@H](O)[C@@H]1O [Bucast, 60-butanoylcastanospermine] : 4.28

====

TEST_DESCRIPTION: XTT cytopathicity assay, uninfected cells (cytotoxicity)
Type: cell-based, bovine
MEASUREMENT_PARAMETERS: bovine
TEST_READOUT: CC50 at 6 days

The value of CC50 at 6 days measured for the molecule OC1CN2CC[C@H](O)[C@@H]2C(O)[C@@H]1O (stereo partly shown) [Castanospermine] turned out to be > 1000 µM

====

System: BVDV NADL
TEST_DESCRIPTION: XTT cytopathicity assay, infected cells
Format: cell-based, bovine viral diarrhoea virus
MEASUREMENT_PARAMETERS: MOI 0.001; read-out: IC50
# IC50 per entry

cpd_smiles=CCCC(=O)O[C@H]1CN2CC[C@H](O)[C@@H]2[C@@H](O)[C@@H]1O test_readout=IC50 readout_value="40 µM"

Now look at this one.
The value of IC50 measured for the compound CCCCN1C[C@H](O)[C@@H](O)[C@H](O)[C@H]1CO turned out to be > 300 µM
